For each entry below, report its SPOT peptide array binding signal intensity value.
target_under_test: AgMyo5
assay_text: SPOT peptide array binding signal intensity (averaged, normalized) (arbitrary units (background-subtracted, floor 0; scale differs between SH3 domains)); higher = stronger binding of the SH3 domain to the peptide
Answers are plain numbers.

Hi team, please reply with SPOT peptide array binding signal intensity for each item in this list.
1. KTKQQKPAIPQKKSF
2. QTREPNEPPPPSPAM

[A]
4
1420
